Source: patent US20200055939A1

- target.or.system: T1, huMICA*002 alpha 3-his (human)
- T1 construct: whole construct entry: GS, alpha 3 domain, GNS, His8; also called MICA002.His; MICA*002 alpha3 construct
- T1 chain: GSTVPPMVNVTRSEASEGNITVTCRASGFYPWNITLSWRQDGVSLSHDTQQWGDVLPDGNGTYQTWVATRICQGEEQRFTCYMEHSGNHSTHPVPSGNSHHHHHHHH
- protocol: SPR, Biacore 8K, antibody on Protein A chip
pKd listing for selected binders.
Remember, pKd is on a log scale: it is -log10 of the molar concentration.

13A9v4 (antibody, IgG1, V domains shown, humanized variant of 13A9) VH: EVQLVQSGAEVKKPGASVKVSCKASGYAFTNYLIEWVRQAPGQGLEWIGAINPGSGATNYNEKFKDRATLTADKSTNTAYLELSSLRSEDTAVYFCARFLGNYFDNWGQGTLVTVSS VL: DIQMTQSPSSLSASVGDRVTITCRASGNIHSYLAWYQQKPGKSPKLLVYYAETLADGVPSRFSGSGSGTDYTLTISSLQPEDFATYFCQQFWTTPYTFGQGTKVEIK | 8.41
15F11v5 (antibody, IgG1, V domains shown, humanized variant of 15F11) VH: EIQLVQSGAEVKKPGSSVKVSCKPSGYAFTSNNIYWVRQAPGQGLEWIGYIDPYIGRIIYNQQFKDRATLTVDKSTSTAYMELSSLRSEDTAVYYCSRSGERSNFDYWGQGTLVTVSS VL: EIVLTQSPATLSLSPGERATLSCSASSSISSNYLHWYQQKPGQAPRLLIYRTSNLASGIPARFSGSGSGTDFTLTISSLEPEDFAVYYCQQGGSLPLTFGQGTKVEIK | 8.22
1D5v20 (antibody, IgG1, V domains shown, humanized variant of 1D5) VH: EIQLVQSGAEVKKPGASVKVSCKASGYAFTSQNIYWVRQAPGQGLEWIGYIEPYNVVPMYNPKFKGRVTLTVDKSTSTAYLELSSLRSEDTAVYYCARSGSSNFDYWGQGTLVTVSS VL: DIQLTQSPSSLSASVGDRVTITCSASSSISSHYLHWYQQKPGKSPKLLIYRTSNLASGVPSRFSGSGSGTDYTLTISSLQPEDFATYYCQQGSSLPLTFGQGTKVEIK | 8.94
13A9 (antibody, V domains shown, mouse variable domains) VH: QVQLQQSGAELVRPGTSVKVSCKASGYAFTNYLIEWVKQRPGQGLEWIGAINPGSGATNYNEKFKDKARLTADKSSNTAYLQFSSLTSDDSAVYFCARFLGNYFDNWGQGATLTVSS VL: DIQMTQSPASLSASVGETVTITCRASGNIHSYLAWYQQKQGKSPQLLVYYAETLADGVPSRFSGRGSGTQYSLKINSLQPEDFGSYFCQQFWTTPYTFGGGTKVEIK | 8.32

Okay, next one:
IN: pKd for 1D5v5 (antibody, IgG1, V domains shown, humanized variant of 1D5) VH: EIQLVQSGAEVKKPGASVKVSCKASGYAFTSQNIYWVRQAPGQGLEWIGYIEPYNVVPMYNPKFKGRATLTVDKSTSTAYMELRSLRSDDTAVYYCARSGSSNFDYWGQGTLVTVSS VL: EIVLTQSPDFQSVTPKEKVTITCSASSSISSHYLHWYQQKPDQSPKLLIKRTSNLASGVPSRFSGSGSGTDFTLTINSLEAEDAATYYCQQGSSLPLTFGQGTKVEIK ?
OUT: 8.59
